study target: T1, βarr2 R166A mutant (Rattus norvegicus, UniProt P29067 1-410, R166A)
T1 construct: β-arrestin2, rat (as the wild type m1), with R166A; also called R166A (site I); source: purified
T1 sequence (P29067 whole entry R166A): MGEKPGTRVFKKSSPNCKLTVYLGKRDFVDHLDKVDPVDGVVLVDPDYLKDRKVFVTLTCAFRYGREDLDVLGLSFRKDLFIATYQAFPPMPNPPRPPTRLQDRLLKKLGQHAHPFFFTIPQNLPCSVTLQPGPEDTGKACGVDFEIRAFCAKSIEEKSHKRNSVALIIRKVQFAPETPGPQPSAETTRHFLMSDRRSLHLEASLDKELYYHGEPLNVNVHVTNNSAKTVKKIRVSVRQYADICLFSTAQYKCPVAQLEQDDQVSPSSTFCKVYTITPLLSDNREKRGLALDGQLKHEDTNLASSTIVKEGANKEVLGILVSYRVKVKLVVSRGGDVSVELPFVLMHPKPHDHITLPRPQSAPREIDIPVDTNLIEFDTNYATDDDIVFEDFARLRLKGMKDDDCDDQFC
protocol: ITC; 1 mM peptide injected (2.5 μL, 200 s intervals) into 200 μM βarr2 in the cell; 298 K; 20 mM HEPES pH 7.0, 200 mM NaCl; two-site model for the wild type
run parameters: both partners purified
Square brackets hold non-standard residues; d marks the D form. Ends that are not written are not given here. pT = C[C@@H](OP(=O)(O)O)[C@H](N)C(=O)O; pS = N[C@@H](COP(=O)(O)O)C(=O)O
property measured: Kd (µM)
Numbers only here, please. The scale is µM.

Lab book: Kd of ASRV[pS]E[pT]EY[pS]ALEQ (peptide, UniProt P25106 346-359, looked up, CXCR7 (atypical chemokine receptor), C-terminal residues 346-359; also called distal phospho-site cluster PxPxxP; source: synthetic peptide (NovoPep and Tufts University Core Facility)) [C7pp2, phosphopeptide from the carboxyl terminus of CXCR7 (residues 346-359)] noted as 16.4
